# method.description: in vitro
# assay.conditions: human, HepG2 cells
# Description: Toxicity in human HepG2 cells assessed as cell viability at 300 uM by MTT assay relative to control
Recorded viability at 300 µM by entry
Report as a plain number; the unit % is understood.

Below, each entry is followed by its recorded viability at 300 µM result.
Q: Need viability at 300 µM, item `COc1ccc2nc3c(c(NCCCCCCCCN(CC(=O)NCCc4c[nH]c5ccc(OC)cc45)C(=O)CCCC[C@@H]4CCSS4)c2c1)CCCC3`
Ans: 77.8

Q: Thanks! And `COc1ccc2[nH]cc(CCNC(=O)CN(CCCCCCCCNc3c4c(nc5ccccc35)CCCC4)C(=O)CCCC[C@@H]3CCSS3)c2c1` ?
Ans: 58.9

Q: Thanks! And `COc1ccc2nc3c(c(NCCCCCCCN(CC(=O)NCCc4c[nH]c5ccc(OC)cc45)C(=O)/C=C/c4ccc(O)c(OC)c4)c2c1)CCCC3` ?
Ans: 69.9

Could you now look at the following compound, please?
Q: Need viability at 300 µM, item `COc1ccc2nc3c(c(NCCCCCCCN(CC(=O)NCCc4c[nH]c5ccc(OC)cc45)C(=O)CCCC[C@@H]4CCSS4)c2c1)CCCC3`
Ans: 57.7

---

# method.description: in vitro
# assay.conditions: human, HepG2 cells
Just a reminder that ties go to n: only viability at 300 µM strictly below 60% counts as y.

Solved cases below.
Q: Determine whether this molecule shows viability at 300 µM lower than 60% (ties excluded): `COc1ccc2nc3c(c(NCCCCCCN(CC(=O)NCCc4c[nH]c5ccc(OC)cc45)C(=O)CCCC[C@@H]4CCSS4)c2c1)CCCC3`
Ans: y

Q: Thanks! And `COc1ccc2nc3c(c(NCCCCCCCCN(CC(=O)NCCc4c[nH]c5ccc(OC)cc45)C(=O)/C=C/c4ccc(O)c(OC)c4)c2c1)CCCC3` ?
Ans: y

Q: Thanks! And `COc1ccc2[nH]cc(CCNC(=O)CN(CCCCCCCCNc3c4c(nc5ccccc35)CCCC4)C(=O)/C=C/c3ccc(O)c(OC)c3)c2c1` ?
Ans: y

Q: Thanks! And `COc1ccc2[nH]cc(CCNC(C)=O)c2c1` ?
Ans: n

More entries:
Q: Determine whether this molecule shows viability at 300 µM lower than 60% (ties excluded): `COc1ccc2nc3c(c(NCCCCCCN(CC(=O)NCCc4c[nH]c5ccc(OC)cc45)C(=O)/C=C/c4ccc(O)c(OC)c4)c2c1)CCCC3`
Ans: n
